target: human IL-4Rα (hIL-4Rα) monomeric protein (human) (UniProt P24394); assay: barcoded-antigen count on source cell (scRNA-seq)
readout-kind: log10 of REGN560.L15 ab raw (log10 of the value in counts)
Answers are given as log10 of REGN560.L15 ab raw in counts.

Returns the measured log10 of REGN560.L15 ab raw for the input binder. Input: Table 1 Line # 30 antibody (SP_B_cell) (antibody, human IgG4, V domains shown) VH: EVQLVESGGGMVQPGRSLRLSCAASGFTFDDYAMHWVRQAPGKGLEWVSGIKWNGGNIGYADSVKDRFTISRDNAKNSLFLQMNSLRAEDAALYSCAKDIGGSQYALDVWGQGTTVTVSS VL: DIQMTQSPSSLSASVGDRVTITCRASLSIGSYLNWYQKKPGKAPKLLIFVASSLQGGVSSRFSGSGSGTDFTLTISSLQPEDFATYYCQQTYSTPFTFGPGTKVDIK
3.96

Then this binder: Table 1 Line # 22 antibody (SP_B_cell) (antibody, human IgG4, V domains shown) VH: EVQLVESGGGLVQPGRSLRLSCAASGFTFDDYAMYWVRQIPGKGLEWVSGITWNSGSIGYAGSVQGRFTISRDNAKNSLYLQMNSLRVEDTALYYCAKDIGGSYLGFDYWGQGALVTVSS VL: ETVLTQSPGTLSLSPGERVTLSCRASQSVSSTYLAWYQQKPGQAPRLLIYGASNRATGIPDRFSGSGSGTDFTLTISRLEPEDFAVYYCQQYGSSYTFGQGTKLEIK
4.15

Then this binder: Table 1 Line # 39 antibody (SP_B_cell) (antibody, human IgG4, V domains shown) VH: EVQLVESGGDLVQPGRSLRLSCAASGFTFDDYAMYWVRQTPGKGLEWVSRITWNSGSIGYAGSVQGRFTISRDNAKNSLYLQMNSLRAEDSALYYCAKDIGGSYLGFDYWGQGTLVTVSS VL: EIVLTQSPGTLSLSPGERVTLSCRASQSVSATYFAWYQQKPGQPPRLLIYGASNRATGIPDRFSGSGSGTDFTLTISRLEPEDFAVYYCQQNGNSYTFGQGTILEIK
3.55

Then this binder: Table 1 Line # 48 antibody (SP_Plasma_cell) (antibody, human IgG4, V domains shown) VH: EVQLVESGGVLVQPGRSLRLSCAASGFTFDDFAMHWVRQAPGKGLEWVSGISWNGNSIGYADSVKGRFTISRDNAKNSLYLQMNSLRTEDTALYYCAKDTSSWSYYYGMDVWGQGTTVTVSS VL: DIQMTQSPSSLSASVGDRVTITCRASQGIRNDLGWYQQKPGKAPKRLIYAASNLQSGVPSRFSGSGSGTEFTFTISSLQPEDFATYYCLQHNSYPYTFGQGTKLEIK
3.09

Then this binder: Table 1 Line # 33 antibody (SP_B_cell) (antibody, human IgG4, V domains shown) VH: EVQLLESGGGLVQPGGSLRLSCAASRFTFSNYEMNWVRQAPGKGLEWLSYINTSGTTIYYADSVKGRFTISRDNAKNSLYLQMNSLRAEDTAVYYCARVNWNSDAFDIWGQGTMVTVSS VL: EIVMTQSPATLSVSPGERATLSCRASQIVGSNLAWYHQKPGQAPRLLIYSASTRATGIPARFSGSGSGTEFTLTISSLQSEDFAVYYCQQYNNWPPFTFGPGTKVDIK
3.87
